# key: entry, value: pIC50
# Tgt: mICE (Mus musculus, UniProt P29452)
# Sequence (P29452 119-402): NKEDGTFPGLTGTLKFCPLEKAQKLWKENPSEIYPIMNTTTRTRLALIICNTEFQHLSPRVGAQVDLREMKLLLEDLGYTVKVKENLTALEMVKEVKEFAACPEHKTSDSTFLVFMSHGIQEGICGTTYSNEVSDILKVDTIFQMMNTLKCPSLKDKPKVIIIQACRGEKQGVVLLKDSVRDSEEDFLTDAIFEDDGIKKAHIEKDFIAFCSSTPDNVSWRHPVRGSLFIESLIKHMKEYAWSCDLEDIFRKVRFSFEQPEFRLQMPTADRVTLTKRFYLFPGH
# Test: Fluorescence enzyme assay, IC50 for ICE (Example 1A)
# Assay type: biochemical
# Measurement Parameters: Table 1, Formula A; 30 min preincubation, room temperature; read-out: mICE IC50
# Procedure: Fluorescence enzyme assays detecting the activity of the compounds of Formula 1 utilizing the recombinant ICE and CPP32 enzymes were performed essentially according to Thomberry et al. (Nature, 356:768:774 (1992)) and Nicholson et al. (Nature, 376:37-43 (1995)) respectively, (herein incorporated by reference) in 96 well microtiter plates. […]
In textbook form, pIC50 equals minus log to base ten of the concentration in mol/L.

Solved cases (3 shown):
{"columns": ["Compound", "pIC50"],
 "data": [
  ["C=CCCn1c(C(=O)NC(C(=O)NC(C=O)CC(=O)O)C(C)C)cc2ccccc21 (stereo not shown)", 6.50],
  ["CC(C)C[C@H](NC(=O)c1cc2ccccc2n1C)C(=O)N[C@H](C=O)CC(=O)O", 5.26],
  ["C[C@H](NC(=O)c1cc2ccccc2n1C)C(=O)N[C@H](C=O)CC(=O)O", 6.75]
]}

Lab book: pIC50 of Cn1c(C(=O)N2CCC[C@H]2C(=O)N[C@H](C=O)CC(=O)O)cc2ccccc21 noted as 4.93
